- study.system: 5-hydroxytryptamine receptor 1E (Homo sapiens)
- run.description: 5-HT1E receptor antagonists, primary screen, cell-based, HTS (AID 571);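 also: signal is the 460 over 535 nm emission ratio of beta-lactamase substrate; 0% = agonist plus DMSO wells and 100% = wells without agonist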
- run.parameters: CHO 5-HT1E Ga15 NFAT-bla reporter, FRET, antagonist; at 6 µM; stronger effect = higher value
Hit rate of the full screen: of about 65,000 compounds, about 640 (0.98%) were called active. The list comes from a sample in which actives are over-represented; it also holds close analogues and randomly drawn compounds.
property.name: inhibition (%)
Report the figure in % without appending any unit label.

IN: Give its inhibition value. Item: Cc1nc2cc(-c3ccc(F)cc3)nn2c(N2CCOCC2)c1C
OUT: -1.31

IN: Give its inhibition value. Item: CCc1nc(Nc2ccc3nccnc3c2)c2oc3ccccc3c2n1
OUT: 51.6

IN: Give its inhibition value. Item: CC(=O)C1C(c2ccc(Cl)cc2)NC(=O)NC1(O)C(F)(F)F (centres undefined)
OUT: 6.15

IN: Give its inhibition value. Item: COc1cccc(-c2nc(S(=O)(=O)c3ccccc3)c(N3CCOCC3)o2)c1
OUT: 19.7

IN: Give its inhibition value. Item: Cc1cccc(CSc2nnc(Cn3c(=O)sc4ccccc43)n2C)c1
OUT: -7.45

IN: Give its inhibition value. Item: Cc1nc2sc(C(c3ccco3)N3CCC4(CC3)OCCO4)c(O)n2n1 (centres undefined)
OUT: -11.1

IN: Give its inhibition value. Item: CC(C)OCCCNc1ncnc2c1[nH]c1ccc(F)cc12
OUT: 35

IN: Give its inhibition value. Item: Cn1cnc2c1c(=O)n(Cc1c(Cl)cccc1Cl)c(=O)n2C
OUT: 5.12

IN: Give its inhibition value. Item: COc1ccc(S(=O)(=O)NC(CC(=O)NCc2ccccc2OC)c2ccco2)cc1 (centres undefined)
OUT: -1.55

IN: Give its inhibition value. Item: Cc1cc(C)n(-c2ccc(Cl)c(C(=O)O)n2)n1
OUT: 4.5

IN: Give its inhibition value. Item: COc1ccccc1N(C(=O)Cn1nnc2ccccc21)C(C(=O)NCc1ccco1)c1ccc(C)o1 (centres undefined)
OUT: 12.3

IN: Give its inhibition value. Item: O=C(CSc1nnc(-c2c[nH]c3ccccc23)n1-c1ccc(F)cc1)NCc1ccco1
OUT: 6.88

IN: Give its inhibition value. Item: CCSC1=C(C#N)C(=O)n2c1cc1c2CCCC1
OUT: -0.37

IN: Give its inhibition value. Item: COc1ccccc1-c1nc(C(F)(F)F)c(OC)o1
OUT: -6.75

IN: Give its inhibition value. Item: Cc1ccc(-n2ncc3c(=O)[nH]cnc32)c(C)c1
OUT: 13

IN: Give its inhibition value. Item: CC1CCCC(C)N1CCCNC(=O)c1cc2c(=O)n(C)c3ccccc3c2n1C (centres undefined)
OUT: -8.37

IN: Give its inhibition value. Item: CN=C1SC(C(=O)O)CC(=O)N1C (centres undefined)
OUT: 1.76

IN: Give its inhibition value. Item: COCCNc1nc(-n2nc(C)cc2C)nc2sc3c(c12)CCCC3
OUT: 22.7

IN: Give its inhibition value. Item: COc1ccc(CCn2c(NCCCN3CCOCC3)nc3c2c(=O)[nH]c(=O)n3C)cc1
OUT: -6.49

IN: Give its inhibition value. Item: CN1CCCC(OC(=O)COc2ccc(Br)cc2)C1 (centres undefined)
OUT: -15.4

IN: Give its inhibition value. Item: c1ccc(-c2cn3cccnc3n2)cc1
OUT: -0.19

IN: Give its inhibition value. Item: CCn1c(=O)cc(OCC(=O)NCCCN2CCN(c3cccc(Cl)c3)CC2)c2ccccc21
OUT: -1.38

IN: Give its inhibition value. Item: COc1ccc(Nc2cc(C)nc(-n3nc(C)cc3C)n2)cc1
OUT: 49

IN: Give its inhibition value. Item: CC1(C)Oc2ccc3ccc(=O)oc3c2/C(=C/NCCO)C1=O
OUT: -8.4

IN: Give its inhibition value. Item: CCC(=O)Nc1ccc(C(=O)CSc2nnc(CNc3ccc(Cl)cc3)o2)cc1OC
OUT: 1.52

IN: Give its inhibition value. Item: COC(=O)c1ccc(NC(=O)CSc2nnc(Cc3cccn3C)n2-c2ccc(F)cc2)cc1
OUT: -7.1

IN: Give its inhibition value. Item: Cc1noc(C)c1S(=O)(=O)N1CCCC(C(=O)Nc2nccs2)C1 (centres undefined)
OUT: 6.69

IN: Give its inhibition value. Item: CCOc1cc(-c2noc(CCC(=O)N3CCOCC3)n2)ccc1OC
OUT: 8.36

IN: Give its inhibition value. Item: COc1cc(C(=O)N(Cc2ccc(N(C)C)cc2)C2CCS(=O)(=O)C2)cc(OC)c1OC (centres undefined)
OUT: -0.54

IN: Give its inhibition value. Item: Cc1cccc(NC(=O)CN2CCCN(S(=O)(=O)c3ccc(Br)s3)CC2)c1
OUT: 12.7

IN: Give its inhibition value. Item: COc1ccc2c(c1OC)C(=O)N(c1ncn[nH]1)C2
OUT: -0.04

IN: Give its inhibition value. Item: COc1cccc(-c2cc3nc4c(c(N5CCC6(CC5)OCCO6)n3n2)CCCC4)c1
OUT: 28.7

IN: Give its inhibition value. Item: CCc1nc(N2CCN(c3nc(C)cc(C)n3)CC2)c2oc3ccccc3c2n1
OUT: 4.92

IN: Give its inhibition value. Item: CCN(Cc1nc2ccccc2c(=O)[nH]1)Cc1cc(=O)oc2cc(C)c(C)cc12
OUT: -2.39
